B1: PLAGL1 (parent)
chain: LELGSTEVLLDHLKAHAEEKPPSG

variants of: B1; assay: protein stability index of a GFP-peptide fusion (GPS, HEK-293T) (PSI 1-6); higher = more stable; settings: c terminus: a fixed tail appended;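 further: lentivirally expressed fusions sorted by FACS into six bins by GFP to DsRed ratio, PSI derived from sequencing read proportions per bin multiplied by bin number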
Threshold rule: protein stability index greater than or equal to 4 is rule met; below that, rule not met.

Mutation list	Label value
L3I	rule met
K14S	rule met
G24F	rule not met
L3A	rule met
S23Y	rule not met
G24E	rule met
H16W	rule not met
E18L	rule not met
S23M	rule met
P21R	rule met
L3D	rule met
T6H	rule met
L13P	rule met
E18P	rule not met
E19R	rule not met
S5P	rule met
A15V	rule met
E19G	rule not met
